target: 17β-HSD3 (Homo sapiens, UniProt P37058); construct: expressed in transfected cells; host or cells: HEK-293 (homogenate); experiment: Inhibition of 17β-HSD3 in homogenated HEK-293 cells; format: biochemical; conditions: Table 2 (17β-HSD3); 0.1 μM; read-out: Homo (%) (0.1 μM)
Sequence (P37058 whole entry): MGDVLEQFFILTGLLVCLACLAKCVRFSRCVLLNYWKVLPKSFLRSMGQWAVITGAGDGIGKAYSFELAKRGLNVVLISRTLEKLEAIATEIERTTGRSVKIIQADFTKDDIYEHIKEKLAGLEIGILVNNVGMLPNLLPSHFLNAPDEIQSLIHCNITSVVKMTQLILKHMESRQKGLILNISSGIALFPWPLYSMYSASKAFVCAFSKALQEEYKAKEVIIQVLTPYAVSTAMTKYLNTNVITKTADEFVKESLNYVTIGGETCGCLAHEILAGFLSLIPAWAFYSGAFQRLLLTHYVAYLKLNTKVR
This section presents molecules with their documented inhibition at 0.1 µM values.
Write the answer as a number in %, unit excluded.

CN1CCN(C[C@@]2(O)CC[C@@]3(C)[C@@H](CC[C@@H]4[C@@H]3CC[C@]3(C)C(=O)CC[C@@H]43)C2)CC1 [Compound 7h] :: 0
C[C@]12CC[C@](O)(CN3CCC(N4CCCCC4)CC3)C[C@@H]1CC[C@@H]1[C@@H]2CC[C@]2(C)C(=O)CC[C@@H]12 [Compound 7g] :: 4
CCN(CC)C[C@@]1(O)CC[C@@]2(C)[C@@H](CC[C@@H]3[C@@H]2CC[C@]2(C)C(=O)CC[C@@H]32)C1 [Compound 7c] :: 10
CCCCN(CCCC)C[C@@]1(O)CC[C@@]2(C)[C@@H](CC[C@@H]3[C@@H]2CC[C@]2(C)C(=O)CC[C@@H]32)C1 [Compound 7d] :: 70

inhibition at 0.1 µM for CN(Cc1ccccc1)C[C@@]1(O)CC[C@@]2(C)[C@@H](CC[C@@H]3[C@@H]2CC[C@]2(C)C(=O)CC[C@@H]32)C1 [Compound 7b] is 79

Short answer for CCN(Cc1ccccc1)C[C@@]1(O)CC[C@@]2(C)[C@@H](CC[C@@H]3[C@@H]2CC[C@]2(C)C(=O)CC[C@@H]32)C1 [Compound 7a] : inhibition at 0.1 µM was 85

* * *

inhibition at 0.1 µM values by entry
molecular target: 17β-HSD3 (Homo sapiens, UniProt P37058); construct: expressed in transfected cells; host or cells: HEK-293 (homogenate); test: Inhibition of 17β-HSD3 in intact HEK-293 cells; type: cell-based; settings: HEK293, 1 h, read-out: Intact cells (%) (0.1 μM), Table 4; 0.1 μM
Write the answer as a number in %, unit excluded.

Solved cases below.
C[C@]12CC[C@@]3(C[C@@H]1CC[C@@H]1[C@@H]2CC[C@]2(C)C(=O)CC[C@@H]12)CN(C1CCCCC1)C(=O)O3 [Compound 17i] :: 29
Cc1ccc(CN2C[C@]3(CC[C@@]4(C)[C@@H](CC[C@@H]5[C@@H]4CC[C@]4(C)C(=O)C(C)(C)C[C@@H]54)C3)OC2=O)cc1 :: 18

The record that follows has no inhibition at 0.1 µM shown yet.
Bench note, 17β-HSD3 (Homo sapiens, UniProt P37058): entry CCCN(CCN1C[C@]2(CC[C@@]3(C)[C@@H](CC[C@@H]4[C@@H]3CC[C@]3(C)C(=O)CC[C@@H]43)C2)OC1=O)C(=O)CC [Compound 23g] , its inhibition at 0.1 µM = 25

* * *

Reported values of inhibition at 0.1 µM for individual entries
target: 17β-HSD1 (Homo sapiens); construct: endogenous in cells; host or cells: T-47D; assay: Inhibition of 17β-HSD1 in T-47D intact cells (E1 into E2); format: cell-based; conditions: T47D, read-out: Inhibition (0.1 μM)
Sequence (P14061 whole entry): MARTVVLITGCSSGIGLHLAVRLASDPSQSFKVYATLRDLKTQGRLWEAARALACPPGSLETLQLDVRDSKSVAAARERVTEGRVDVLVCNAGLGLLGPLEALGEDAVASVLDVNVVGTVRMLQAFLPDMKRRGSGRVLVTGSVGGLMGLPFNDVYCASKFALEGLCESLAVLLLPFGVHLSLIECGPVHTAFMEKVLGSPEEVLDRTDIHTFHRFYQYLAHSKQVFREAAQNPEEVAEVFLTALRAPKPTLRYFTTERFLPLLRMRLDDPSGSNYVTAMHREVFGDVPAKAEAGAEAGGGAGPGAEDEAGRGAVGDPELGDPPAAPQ
The response must be a number in % with no trailing unit.

C[C@]12CC[C@@H]3c4ccc(CCI)cc4CC[C@H]3[C@@H]1C[C@H](Cc1cccc(C(N)=O)c1)[C@@H]2O :: 7
C[C@]12CC[C@@H]3c4ccc(CN)cc4CC[C@H]3[C@@H]1C[C@H](Cc1cccc(C(N)=O)c1)[C@@H]2O :: 35
C[C@]12CC[C@@H]3c4ccc(F)cc4CC[C@H]3[C@@H]1C[C@H](Cc1cccc(C(N)=O)c1)[C@@H]2O :: 48
CNC(=O)c1ccc2c(c1)CC[C@@H]1[C@@H]2CC[C@]2(C)[C@@H](O)[C@@H](Cc3cccc(C(N)=O)c3)C[C@@H]12 [Compound 41d] :: 3
C[C@]12CC[C@@H]3c4ccc(C(=O)N5CCCC5)cc4CC[C@H]3[C@@H]1C[C@H](Cc1cccc(C(N)=O)c1)[C@@H]2O [Compound 41c] :: 0
C[C@]12CC[C@@H]3c4ccc(CCc5ccccc5)cc4CC[C@H]3[C@@H]1C[C@H](Cc1cccc(C(N)=O)c1)[C@@H]2O :: 13
C[C@]12CC[C@@H]3c4ccc(CCCl)cc4CC[C@H]3[C@@H]1C[C@H](Cc1cccc(C(N)=O)c1)[C@@H]2O :: 55
C[C@]12CC[C@@H]3c4ccc(N)cc4CC[C@H]3[C@@H]1C[C@H](Cc1cccc(C(N)=O)c1)[C@@H]2O :: 35
C[C@]12CC[C@@H]3c4ccc(CBr)cc4CC[C@H]3[C@@H]1C[C@H](Cc1cccc(C(N)=O)c1)[C@@H]2O :: 19
C[C@]12CC[C@@H]3c4ccc(CCCBr)cc4CC[C@H]3[C@@H]1C[C@H](Cc1cccc(C(N)=O)c1)[C@@H]2O :: 37

`C[C@]12CC[C@@H]3c4ccc(CCBr)cc4CC[C@H]3[C@@H]1C[C@H](Cc1cccc(C(N)=O)c1)[C@@H]2O` on 17β-HSD1 (Homo sapiens) gives inhibition at 0.1 µM = 56

Record `CNC(=O)Cc1ccc2c(c1)CC[C@@H]1[C@@H]2CC[C@]2(C)[C@@H](O)[C@@H](Cc3cccc(C(N)=O)c3)C[C@@H]12` ; system 17β-HSD1 (Homo sapiens); inhibition at 0.1 µM = 5
